Tested on: Clinical isolates 07-W3-45 (VRE)
experimental protocol: In vitro antibacterial activity (MIC) against VRE
Type: cell-based, Vancomycin-resistant Enterococcus
test conditions: clinically isolated drug-resistant strain 07-W3-45 from Shanghai Huashan Hospital
Procedure: An antibacterial activity of the compounds in Table 1 is determined in vitro, and a minimum inhibitory concentration (MIC) is read. The determination method refers to the method of the Pharmacopoeia of the People's Republic of China (2015 edition). The MRSA detection strain is purchased from ATCC, and the VRE detection strain is from the clinically isolated drug-resistant strain 07-W3-45 from Shanghai Huashan Hospital. Known antibiotic oritavancin (phosphate) is used for a reference drug.
Measured MIC Clinical isolates 07-W3-45 (VRE) by item
parameter measured: MIC Clinical isolates 07-W3-45 (VRE) (µg/mL)

molecule	measured target	parameter measured	measurement units	reported measurement
CNC(CC(C)C)C(=O)NC1C(=O)NC(CC(N)=O)C(=O)NC2C(=O)NC3C(=O)NC(C(=O)NC(C(=O)O)c4cc(O)cc(O)c4-c4cc3ccc4O)C(OC3CC(C)(N)C(O)C(C)O3)c3ccc(c(Cl)c3)Oc3cc2cc(c3OC2OC(CO)C(O)C(O)C2OC2CC(C)(NCc3ccc(NCCCc4ccccc4)cc3)C(O)C(C)O2)Oc2ccc(cc2Cl)C1O (stereo not drawn) [Compound 24]	Clinical isolates 07-W3-45 (VRE)	MIC Clinical isolates 07-W3-45 (VRE)	µg/mL	1
CNC(CC(C)C)C(=O)NC1C(=O)NC(CC(N)=O)C(=O)NC2C(=O)NC3C(=O)NC(C(=O)NC(C(=O)O)c4cc(O)cc(O)c4-c4cc3ccc4O)C(OC3CC(C)(N)C(O)C(C)O3)c3ccc(c(Cl)c3)Oc3cc2cc(c3OC2OC(CO)C(O)C(O)C2OC2CC(C)(NCc3ccc(NCc4ccc(C)cc4)cc3)C(O)C(C)O2)Oc2ccc(cc2Cl)C1O (stereo not drawn) [Compound 18]	Clinical isolates 07-W3-45 (VRE)	MIC Clinical isolates 07-W3-45 (VRE)	µg/mL	1
CNC(CC(C)C)C(=O)NC1C(=O)NC(CC(N)=O)C(=O)NC2C(=O)NC3C(=O)NC(C(=O)NC(C(=O)O)c4cc(O)cc(O)c4-c4cc3ccc4O)C(OC3CC(C)(N)C(O)C(C)O3)c3ccc(c(Cl)c3)Oc3cc2cc(c3OC2OC(CO)C(O)C(O)C2OC2CC(C)(NCc3ccc(OCCc4ccc(C)cc4)cc3)C(O)C(C)O2)Oc2ccc(cc2Cl)C1O (stereo not drawn) [Compound 6]	Clinical isolates 07-W3-45 (VRE)	MIC Clinical isolates 07-W3-45 (VRE)	µg/mL	8

Where these numbers come from: patent US11696937B2
